# System: MS2 coat protein
# protocol: apparent KD of MS2 coat protein; designed switch direction (-1 OFF switch, 1 ON switch): 1; higher = weaker reporter binding
# setup conditions: Eterna round: R95; input ligand: microRNA oligo, concentration not stated
apparent KD of MS2 coat protein values, listed per item
Please reply with the bare figure in nM and do not write the unit itself.

Please review the entries below; each comes with its answer.
sequence code: GGAGAACAUGAGGAUCACCCAUGUGAGAGGGAUGUAGGAUAUGUGAGGAGUAAAGGAGGGACAGAAGGACAGAGAU [JR_SS!_Sub068] (puzzle: Same State 1)
units label: nM
apparent KD of MS2 coat protein: 40.5
//
sequence code: UAGAGAGGAAGCGAGGAUAUCGUGUGAGGUACAUGAGGAUCACCCAUGUUUUAUGUUGAGAGAGGCGAGAAGGCGCAGGAGAAAA [JR_SS2_Sub087] (puzzle: Same State 2)
units label: nM
apparent KD of MS2 coat protein: 37.3

Please look at the following sequence next.
The value of apparent KD of MS2 coat protein measured for the sequence AUAAAACAUGAGGAUCACCCAUGUCAACAAAGUCGAGGAUAUGGGCAAAUAAAAUAAGAACUAGAAGGCGAAUAAU [salish99_ss1_r3_031] (puzzle: Same State 1) turned out to be 1770
